methodNotes: Solubility of amorphous substance in solvent systems (supersaturated solution, oscillated 24 h at room temperature, HPLC)
Assay type: physicochemical
recordedConditions: dehydrated alcohol 35%-propylene glycol 45%-water 20% (w/w), aqueous with cosolvent or surfactant or cyclodextrin, thermodynamic from solid, Dehydrated alcohol 35%-propylene glycol 45%-water 20% (w/w); read-out: Solubility
measuredProperty: solubility at 24 h

What value of measured solubility at 24 h is listed for Cc1ncsc1-c1ccc(CNC(=O)[C@@H]2C[C@@H](O)CN2C(=O)[C@@H](NC(=O)COCCCCOc2ccc(-c3ccc(N4C(=S)N(c5ccc(C#N)c(C(F)(F)F)c5F)C(=O)C4(C)C)cn3)cc2)C(C)(C)C)cc1 ? > 154 mg/mL
